// reported % of explants producing 2-5 shoots (each from a single primary meristem) for each item listed
Test system: wheat mesocotyl explants
methodDescription: Multiple shoot production with cytokinins alone, wheat mesocotyl explants
Assay type: cell-based
conditionDetails: cytokinin 5 mg/L; (L) 16 h photoperiod for four weeks; 32 days after culture
quantity: % of explants producing 2-5 shoots (each from a single primary meristem)

1. O=C(Nc1ccccc1)Nc1cnns1 [TDZ, thidiazuron] ... 80.0%
2. c1coc(CNc2ncnc3[nH]cnc23)c1 [Kinetin, kinetin] ... 20.0%
3. c1ccc(CNc2ncnc3nc[nH]c23)cc1 [BA, 6-benzylaminopurine] ... 10.0%
4. C/C(=C\CNc1ncnc2[nH]cnc12)CO [Zeatin, zeatin] ... 20.0%
